Property: GI50; scope: individual compounds
Tested on: SK-OV-3
Assay: NCI tumour cell line growth inhibition, 48 h
The source made the active and inactive calls. Rule as the data show it: active = GI50 up to about 1.1 µM and inactive = higher.

Before answering, review these 4 worked examples.
COc1ccc(/C=C2\Sc3nnc(CNc4ccc(Cl)cc4)n3N=C2c2cc(F)c(Cl)cc2Cl)cc1OC; > 100 µM (inactive)
c1ccc2c(c1)N=c1cc3c(cc1N2)=NC12CCCCC1CC1=C(CCCC1)N32 (stereo not given); > 10 µM (inactive)
Clc1cccc(Cl)c1C1SCC2=Nc3ccccc3CN21 (stereo not given); 20.6 µM (inactive)
Cc1ccc2nc(NC(=O)C(=O)C(C#N)c3nc4ccccc4s3)sc2c1 (stereo not given); 55.8 µM (inactive)

Now let's try a different one.
response.value for `N#CCCC1(CCC#N)CCCCCCC(CCC#N)(CCC#N)C(=O)C1=O` (field: GI50) = > 100 µM (inactive)

---

Listed compounds paired with reported GI50
Tested on: SF-295
Test: NCI tumour cell line growth inhibition, 48 h
Active and inactive are the calls of the source. No stated cut-off is given here; in the data, active = GI50 up to about 1.1 µM and inactive = higher.

Look over these answered cases.
N=C(N)NC(CC(=O)O)c1ccccc1 (centres undefined); > 100 µM (inactive)
O=C(O)CC1(CC(=O)O)Nc2ccccc2SC1=O; > 100 µM (inactive)
CCNc1cc2c3c(c1)CCCN3CCC2; 18.2 µM (inactive)
COC1=C(OC)C(=O)C(Cc2c(Cl)nc3sccn23)=C(C)C1=O; 12.4 µM (inactive)
CCOc1cc(NC(C)=O)ccc1C(=O)NNS(=O)(=O)c1ccc(Cl)cc1Cl; > 50 µM (inactive)

GI50 recorded for this compound, `COc1cc(/C=N/c2ccc(Oc3ccc(Cl)cc3)c(Cl)c2)cc(OC)c1OC` , is 18.2 µM (inactive)

Lab book: GI50 of `CCc1nc(N)nc(N)c1-c1ccc(Cl)c(/N=N/N(C)C)c1` noted as 26.5 µM (inactive)

Please fill in: GI50 reported for `O=C1CCCCN1C(=O)c1ccc([N+](=O)[O-])cc1` = > 100 µM (inactive)

GI50 measured on `N/N=C1N=C(Cl)/C(=C/c2ccco2)N\1` = 38.1 µM (inactive)

---

Tested on: HL-60
Assay: NCI tumour cell line growth inhibition, 48 h
Calls of active or inactive are those of the source. No stated cut-off is given here; in the data, active = GI50 up to about 1.1 µM and inactive = higher.
Mark one answer only. Choices: yes (1) = active, no (0) = inactive

CN(C)CC1CC/C(=C\c2ccc(Cl)cc2)C1=O (configuration not stated); yes (1)
COc1ccc(-n2c3c(c4cc(O)ccc42)C(=O)c2ccccc2C3=O)cc1; no (0)
COC(=O)C1=Cc2cc(OC)c(OC)c(OC)c2[C@H](c2cc(OC)c(OC)c(OC)c2)C1C(=O)OC (some centres not stated); no (0)

Qu. // outcome(item) with item = `CCOc1cc2c(cc1O)C=C[C@@H]1[C@@H]2CC[C@]2(C)[C@@H](O)CC[C@@H]12`
Ans. yes (1)

Qu. Record lookup: outcome of this test for CC(C)(C)OC(=O)C1=C(O)C(C(=O)OC(C)(C)C)C23CCCCC12C(C(=O)OC(C)(C)C)C(O)=C3C(=O)OC(C)(C)C (configuration not stated) ?
Ans. no (0)

Qu. Which outcome did this test record for the compound `N#Cc1c(N)c(C(=O)O)nn(-c2cccc(C(F)(F)F)c2)c1=O` ?
Ans. no (0)

Qu. Record lookup: outcome of this test for O=C1NC2CCC(C2)C1c1ccccc1 (configuration not stated) ?
Ans. no (0)

---

Listed next: entries and their corresponding GI50.
Test system: A549
Experiment: NCI tumour cell line growth inhibition, 48 h
Calls of active or inactive are those of the source. Rule as the data show it: active = GI50 up to about 1.1 µM and inactive = higher.

OC1(c2ccccc2)C2CC=CC2C1(c1ccccc1)c1ccccc1 (centres undefined); 25.2 µM (inactive)
CCNCC(O)c1ccc(N)c([N+](=O)[O-])c1 (centres undefined); > 100 µM (inactive)
Cc1ccc(C2C(Cl)C(=O)N2NC(=O)c2ccc(N)cc2)cc1 (centres undefined); 27.7 µM (inactive)
O=[N+]([O-])c1ccc(/N=N/c2c(O)ccc3cc(S(=O)(=O)O)ccc23)cc1; > 100 µM (inactive)
CC1(C)Oc2ccccc2N2O[C@@H]3C(=O)N(c4ccccc4)C(=O)[C@@H]3C21c1ccccc1 (some centres undefined); 20.1 µM (inactive)

Summary for this molecule, `O=C(NCCN(CCNC(=O)c1cccc(=O)n1O)CCN(CCNC(=O)c1cccc(=O)n1O)CCNC(=O)c1cccc(=O)n1O)c1cccc(=O)n1O` : GI50 is > 100 µM (inactive)

For reference, reported GI50 for `N=c1oc2cc(O)ccc2cc1C(=O)Nc1cccc2ccccc12` stands at 5.37 µM (inactive)

The molecule listed as `CC(C)OP(=O)(OC(C)C)C1=NN(c2ccc([N+](=O)[O-])cc2)C(P(=O)(OC(C)C)OC(C)C)=NN1c1ccc([N+](=O)[O-])cc1` shows GI50 equal to 7.94 µM (inactive)

Record summary for `CCCCCOc1ccc(NC2=C(Cl)C(=O)c3c(O)ccc(O)c3C2=O)cc1` : reported GI50 = > 10 µM (inactive)

---

Test system: Hs-578T
Assay: NCI tumour cell line growth inhibition, 48 h
Activity calls are given as the source filed them. Rule as the data show it: active = GI50 up to about 1.1 µM and inactive = higher.
Parameter call: string, one of active, inactive

Cc1ccc(S(=O)(=O)NC(CO)C(=O)O)cc1 (stereo not drawn); inactive
Nc1cc(CO)cc(Nc2nc3ccc(Cl)cc3c3[nH]c4ccccc4c23)c1; inactive

Qu. What outcome does the record of this test show for `CCCCCCCCCCC/C=C(/C(=O)CCCO[Si](C)(C)C(C)(C)C)C(=O)OC` ?
Ans. inactive

Qu. Outcome? `NS(=O)(=O)c1nnc(NS(=O)(=O)c2cccc3cccnc23)s1`
Ans. inactive

Qu. Entry `NC1=Nc2ccccc2Sc2nncn21` : call = ?
Ans. inactive

Qu. Could you check what this test reported for C[N+]12CCCCC1C(CN1C(=O)c3ccccc3C1=O)CCC2 (stereo not drawn) ?
Ans. inactive

Qu. Hi, sorry to bother you, what did the test record for `N#CC(C#N)SCc1ccccc1` ?
Ans. inactive

Qu. Name the outcome recorded for `CNc1nc(N)c(N=O)c(Nc2ccc(Br)cc2)n1` in the assay.
Ans. inactive

Qu. What did this assay record as the result for CC(CC(=O)CO[C@H]1[C@H](O)[C@@H](O)[C@@H](O)[C@@H]2NC(=O)c3c(cc4c(c3O)OCO4)[C@H]21)OC1OC(CO)C(O)C(O)C1O (stereo partly drawn) ?
Ans. active

Qu. Any idea what this test logged for `O=C(O)c1nc2ccc(Cl)cc2[nH]c1=O` ?
Ans. inactive

Qu. Identify the outcome logged in this assay for the compound shown: `Cc1cc(NS(=O)(=O)c2ccc(Nc3c4ccccc4nc4ccc(C(=O)Nc5ccc(S(N)(=O)=O)cc5)cc34)cc2)no1`
Ans. inactive

Qu. Assay outcome for `CCN(CC)C(=S)N/N=C1\C(=O)Nc2ccccc21` : what was it?
Ans. active

Qu. Recorded test call requested for `COc1ccc(/C=C2\Sc3nnc(CNc4ccc(Cl)cc4)n3N=C2c2cc(F)c(Cl)cc2Cl)cc1OC`
Ans. inactive

---

Each record here notes measured GI50.
Test system: COLO 205
Assay: NCI tumour cell line growth inhibition, 48 h
Active and inactive are the calls of the source. Cut-off read from the data, not from the text of the source: active = GI50 up to about 1.1 µM and inactive = higher.

# count of solved cases: 3
CCN(CC)CCOC(NC(C)=O)(c1ccccc1)c1ccccc1; > 100 µM (inactive)
OC1(c2ccccc2)C2CC=CC2C1(c1ccccc1)c1ccccc1 (stereo unspecified); 18.4 µM (inactive)
CC12CC/C(=N/NC(N)=O)C3C1CCCC32; > 100 µM (inactive)

Looking up OC(c1ccc(F)cc1)C(F)(F)c1nc2ccccc2o1 (stereo unspecified) , I found its GI50 recorded as > 100 µM (inactive)

GI50 reported for this compound CC1CC(c2ccc(Cl)c(Cl)c2)=Nc2ccccc2S1 (stereo unspecified) : > 100 µM (inactive)

Please fill in: GI50 reported for `NC1=Nc2ccccc2Sc2nncn21` = > 100 µM (inactive)

Lab note: `CC1(C)N=C(/C=N/O)C(C)(C)N1O` gave GI50 of > 100 µM (inactive)

GI50 in this record for CC(/C=C/NNC1=NN=C(c2ccccc2)C(c2ccccc2)N1)Sc1ccccc1N (stereo unspecified) : 15.3 µM (inactive)

Item: `CC1(C)C=Cc2c(cc3oc4ccc5c(c4c(=O)c3c2O)C=CC(C)(C)O5)O1` | GI50: > 100 µM (inactive)

Reported GI50 for `N#[N+][c-]1c(-c2ccccc2)n[nH]c1=O` was > 100 µM (inactive)

# GI50 of `O=C1C=C(C2=C(C3=CC(=O)c4ccccc4C3=O)C(=O)c3ccccc3C2=O)C(=O)c2ccccc21` = 3.94 µM (inactive)

---

Tested on: ACHN
Experiment: NCI tumour cell line growth inhibition, 48 h
The source made the active and inactive calls. Rule as the data show it: active = GI50 up to about 1.1 µM and inactive = higher.
observed-property: GI50

COc1ccc(C2CC(C)(O)Oc3cc4c(cc32)OCO4)cc1 (stereo unspecified); 43.2 µM (inactive)
COc1c2c(nc3ccccc13)-c1cc(C(CC(=O)OC(C)(C)C)C(=O)OC(C)C)c(CO)c(=O)n1C2 (stereo unspecified); 21.9 µM (inactive)
COP(=O)(OC)C12CCOCCN1c1ccccc1C2=O (stereo unspecified); > 100 µM (inactive)

The recorded GI50 for entry `O=C1NC(Nc2ccccc2Cl)=N/C1=C\c1c(Cl)cccc1Cl` equals 50.5 µM (inactive)

Briefly, GI50 measured for `CCOc1cc2c(cc1O)C=C[C@@H]1[C@@H]2CC[C@]2(C)[C@@H](O)CC[C@@H]12` : 11.6 µM (inactive)

Query `COc1ccc(/C(Cl)=C(\C=O)c2ccc(Cl)cc2)cc1` yields GI50 of 3.27 µM (inactive)

Notebook: CC(/C=C/NNC1=NN=C(c2ccccc2)C(c2ccccc2)N1)Sc1ccccc1N (stereo unspecified) , GI50 read as 10.4 µM (inactive)

Per the records, this molecule ( `Cc1cccc(N(CCC#N)S(=O)(=O)c2ccccc2)c1` ) has GI50 equal to > 100 µM (inactive)
